Test system: Pseudomonas aeruginosa ATCC 27853
Assay: ≥ marks a high value that may be exact or a test limit, other limits are often not marked, values filed in µg/mL are converted to µM
Catalogue of MIC readings, one per entry.
Attribute measured: MIC (µM)

INSERT INTO results (compound, measurement_unit, qualifier_sign, result) VALUES
  ('CC(C)[C@H](NC(=O)CNC(=O)[C@H](CCC(N)=O)NC(=O)[C@@H](NC(=O)[C@@H](NC(=O)[C@@H]1CCCN1C(=O)[C@H](CCCN=C(N)N)NC(=O)[C@@H](NC(=O)CNC(=O)[C@@H](N)CCCN=C(N)N)C(C)C)C(C)C)C(C)C)C(=O)N[C@@H](CCCCN)C(=O)N[C@@H](CCC(=O)O)C(=O)N[C@@H](CCCCN)C(=O)N[C@H](C(=O)N[C@@H](CCCN=C(N)N)C(=O)O)C(C)C [RGVRPVVQGVKEKVR]', 'µM', '>', 37.5),
  ('CC(C)[C@@H]1NC(=O)[C@H](CCCN=C(N)N)NC(=O)[C@H](Cc2ccccc2)NC(=O)[C@@H](NC(=O)[C@H](Cc2c[nH]c3ccccc23)NC(=O)[C@@H](N)CCCCN)CSSC[C@@H](C(=O)N[C@@H](CCCN=C(N)N)C(=O)O)NC(=O)[C@H](CCCN=C(N)N)NC(=O)[C@H](CCCN=C(N)N)NC(=O)[C@H](Cc2ccc(O)cc2)NC(=O)[C@@H]2CSSC[C@H](NC1=O)C(=O)N[C@@H](Cc1ccc(O)cc1)C(=O)N[C@@H](CCCN=C(N)N)C(=O)NCC(=O)N[C@@H](C)C(=O)N2 [KWCFRVCYRGACYRRCR]', 'µM', '=', 0.112),
  ('CC[C@H](C)[C@H](N)C(=O)N[C@@H](CC(C)C)C(=O)NCC(=O)N[C@@H](CCCCN)C(=O)N[C@@H](CC(C)C)C(=O)N[C@@H](Cc1c[nH]c2ccccc12)C(=O)N[C@@H](CCC(=O)O)C(=O)NCC(=O)N[C@H](C(=O)N[C@@H](CCCCN)C(=O)N[C@@H](CO)C(=O)N[C@H](C(N)=O)[C@@H](C)CC)C(C)C [ILGKLWEGVKSI]', 'µM', '>', 25),
  ('CC[C@H](C)[C@H](NC(=O)[C@H](CCCCN)NC(=O)[C@@H](NC(=O)[C@H](Cc1ccccc1)NC(=O)[C@H](C)NC(=O)[C@H](CCCCN)NC(=O)CNC(=O)[C@H](Cc1ccccc1)NC(=O)[C@H](CCCCN)NC(=O)[C@H](CCCCN)NC(=O)[C@H](C)NC(=O)[C@@H](N)CCCCN)C(C)C)C(N)=O [KAKKFGKAFVKI]', 'µM', '=', 66.3),
  ('CC(C)C[C@H](NC(=O)[C@H](Cc1ccc(O)cc1)NC(=O)[C@H](Cc1cnc[nH]1)NC(=O)[C@@H](NC(=O)[C@H](CC(C)C)NC(=O)[C@H](C)NC(=O)[C@H](C)NC(=O)[C@H](CCCCN)NC(=O)CNC(=O)[C@@H](NC(=O)[C@H](Cc1cnc[nH]1)NC(=O)[C@H](CCCCN)NC(=O)CNC(=O)[C@@H](NC(=O)[C@H](Cc1cnc[nH]1)NC(=O)[C@H](C)NC(=O)[C@H](C)NC(=O)[C@H](CCCCN)NC(=O)[C@@H](N)CCCCN)C(C)C)C(C)C)[C@@H](C)O)C(N)=O [KKAAHVGKHVGKAALTHYL]', 'µM', '=', 40);
